Measured pIC50 on RORc ligand binding domain (Homo sapiens, UniProt P51449) follows.
Sequence (P51449 269-508 limits assumed): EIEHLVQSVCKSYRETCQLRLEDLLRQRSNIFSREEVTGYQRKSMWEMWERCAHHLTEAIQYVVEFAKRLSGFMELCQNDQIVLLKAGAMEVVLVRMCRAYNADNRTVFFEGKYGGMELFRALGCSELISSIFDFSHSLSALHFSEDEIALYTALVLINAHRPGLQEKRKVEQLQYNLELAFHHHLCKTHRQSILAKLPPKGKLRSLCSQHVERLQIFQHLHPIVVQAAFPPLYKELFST
To interpret pIC50, take it as minus log10 of a concentration measured in moles per litre.

INPUT: Which measured pIC50 value corresponds to CCN(C[C@@]12CC[C@@H](c3cc(-c4c(F)cccc4F)nnc31)C2(C)C)c1nnc(CO)o1 ?
OUTPUT: 7.66

INPUT: What do we get for CC1(C)[C@H]2CC[C@]1(C(=O)N1CC3CC3C1)c1nnc(-c3c(F)cccc3F)cc12 (some centres unmarked) ?
OUTPUT: 8.10

INPUT: What do we get for CC1(C)[C@H]2CC[C@]1(c1nnc(C3CC3)o1)c1nnc(-c3c(F)cccc3F)cc12 ?
OUTPUT: 6.96

INPUT: What do we get for CC1(C)[C@@H]2CC[C@@]1(C(=O)N1CC(F)(F)C1)c1nnc(-c3c(F)cccc3F)cc12 ?
OUTPUT: 7.52

INPUT: What do we get for CC1(C)[C@@H]2CC[C@@]1(C#N)c1nnc(-c3ccccc3F)cc12 ?
OUTPUT: 5.82

INPUT: What do we get for CN(C)C(=O)[C@]12CC[C@H](c3cc(-c4c(F)cccc4F)nnc31)C2(C)C ?
OUTPUT: 7.54

INPUT: What do we get for COC[C@@]12CC[C@@H](c3cc(-c4c(F)cccc4F)nnc31)C2(C)C ?
OUTPUT: 7.35

INPUT: What do we get for CN(C(=O)OC(C)(C)C)[C@]12CC[C@H](c3cc(-c4c(F)cccc4F)nnc31)C2(C)C ?
OUTPUT: 5.65

Attribution: patent US9981916B2
